The measurements presented in this section are drawn from patent US20230286973A1.

- test.description: Liver Microsome Stability Assay (human)
- applied.conditions: human liver microsomes, with NADPH, 1.0 uM compound
measured.metric: Liver Microsome Stability (Multiple Species): Human - % Remaining after 30 min w/NADPH (%)

Reference set (3 entries):
compound | result.number
CC(=O)N1CCOC(/C=C/c2csc(NC(=O)c3cccn3Cc3ccncc3)n2)C1 (centres unmarked) [Compound B10] | 1.05
O=C(Nc1nc([C@H]2CCCN2c2ccccc2)cs1)c1cccn1CCC1CCOC1 (some centres unmarked) [Compound C3] | 16
O=C(Nc1nc([C@H]2CCCN2c2ccc(C(F)(F)F)cc2)cs1)c1cccn1Cc1ccncc1 [Compound A28] | 16.4

a. COCCCCn1cccc1C(=O)Nc1nc([C@H]2CCCN2c2ccccc2)cs1 [Compound C23]
b. O=C(Nc1nc(/C=C/c2c[nH]cn2)cs1)c1cccn1Cc1ccncc1 [Compound B42]
c. O=C(Nc1nc([C@H]2CCCN2c2ccccc2)cs1)c1cccn1CCC1COC1 [Compound C99]
d. CC(=O)N1CCC(Oc2ccc(N3CCC[C@@H]3c3csc(NC(=O)c4cccn4Cc4ccnc(F)c4)n3)c(F)c2)CC1 [Compound A100]
e. CC(C)c1c(/C=C/c2csc(NC(=O)c3cccn3Cc3ccnc(F)c3)n2)ncn1C [Compound B81]
[Q] Sort entries by Liver Microsome Stability (Multiple Species): Human - % Remaining after 30 min w/NADPH from minimum to maximum value. Use the labels to give the requested order.
[A] e, d, b, a, c
(e: 0.58%, d: 3.16%, b: 6.13%, a: 15.8%, c: 26.1%)

###

- test.description: Liver Microsome Stability Assay (mouse)
- applied.conditions: mouse liver microsomes, with NADPH, 1.0 uM compound
measured.metric: Liver Microsome Stability (Multiple Species): Mouse - % Remaining after 30 min w/NADPH (%)

Example entries begin here.
compound | result.number
O=C(Nc1nc([C@H]2CCCN2c2ccc(CO)cc2)cs1)c1cccn1Cc1ccncc1 | 6.1
CC(CC#N)n1cnc(/C=C/c2csc(NC(=O)c3cccn3Cc3ccnc(F)c3)n2)c1 (centres unmarked) | 44.9
O=C(Nc1nc([C@H]2CCCN2c2ccc(OC3CCSCC3)cc2)cs1)c1cccn1Cc1ccnc(F)c1 | 1.37
O=C(Nc1nc([C@H]2CCCN2c2cnccn2)cs1)c1cccn1Cc1ccncc1 | 0.86

I. O=C(Nc1nc([C@H]2CCCN2c2ccccc2)cs1)c1cccn1Cc1ccncc1Br
II. O=C(Nc1nc([C@H]2CCCN2c2ccc(OC(F)(F)F)cc2)cs1)c1cccn1CC1CCOCC1
III. CC(=O)N1CCCCC1c1ccc(N2CCC[C@@H]2c2csc(NC(=O)c3cccn3Cc3ccncc3)n2)cc1 (some centres unmarked)
IV. CC(C)c1ccc(/C=C/c2csc(NC(=O)c3cccn3CC3CCOCC3)n2)nc1
[Q] Rank entries according to their Liver Microsome Stability (Multiple Species): Mouse - % Remaining after 30 min w/NADPH, from the largest number down. # the answer lists labels in the order requested
[A] II, I, III, IV
(II: 99.1%, I: 1.4%, III: 0.24%, IV: 0.09%)

###

- System: IL-2-FL/Gaussia Luciferase
- test.description: Dox Induced IL2-FL-Gluc Assay
- Format: cell-based
- applied.conditions: ratio of IL2FLGluc IC50 to PD1ssGluc IC50
measured.metric: 24 hr Dox Inducible IL2FLGluc 293FRT/TO: IL2/PD1
Lab note: record the figure alone, no unit after it.

Use the examples below as a reference point.
molecule | result.number
CC(=O)N[C@H](C)c1ccc(N2CCC[C@@H]2c2csc(NC(=O)c3cccn3Cc3ccncc3)n2)cc1 [Compound A66] | 2.5
CNC(=O)N1CCC(Oc2ccc(N3CCC[C@@H]3c3csc(NC(=O)c4cccn4Cc4ccnc(F)c4)n3)cc2)CC1 [Compound A136] | 3.1
O=C(Nc1ccc(N2CCC[C@@H]2c2csc(NC(=O)c3cccn3Cc3ccnc(F)c3)n2)cc1)O[C@@H]1CCOC1 [Compound A171] | 1.8
O=C(Nc1nc(/C=C/C2CN(c3ccccc3)CCO2)cs1)c1cccn1Cc1ccncc1 (stereo not drawn) [Compound B18] | 18
NCCOc1ccc(N2CCC[C@@H]2c2csc(NC(=O)c3cccn3Cc3ccnc(F)c3)n2)cc1 [Compound A101] | 2

[Q] Fill in the blank: the reported 24 hr Dox Inducible IL2FLGluc 293FRT/TO: IL2/PD1 of O=C(Nc1nc(/C=C/c2cn(C3CCCCC3)cn2)cs1)c1cccn1Cc1ccnc(F)c1 [Compound B55] is ____.
[A] 79

[Q] Would you mind telling me what 24 hr Dox Inducible IL2FLGluc 293FRT/TO: IL2/PD1 value was observed for CC(=O)Nc1cc(F)c(N2CCC[C@@H]2c2csc(NC(=O)c3cccn3Cc3ccnc(F)c3)n2)c(F)c1 [Compound A96] ?
[A] 2.8

[Q] Given the molecule CC(=O)Nc1ccc(N2CCC[C@@H]2c2csc(NC(=O)c3cc(C)cn3Cc3ccnc(F)c3)n2)cc1 [Compound A164] , what is its reported 24 hr Dox Inducible IL2FLGluc 293FRT/TO: IL2/PD1?
[A] 2.4

[Q] Find the recorded 24 hr Dox Inducible IL2FLGluc 293FRT/TO: IL2/PD1 belonging to Cc1nc(/C=C/c2csc(NC(=O)c3cccn3Cc3ccncc3)n2)co1 [Compound B2] and report it.
[A] 110

[Q] Requested field: 24 hr Dox Inducible IL2FLGluc 293FRT/TO: IL2/PD1. Item: C[C@@H](O)c1ccc(N2CCC[C@@H]2c2csc(NC(=O)c3cccn3Cc3ccnc(F)c3)n2)cc1 [Compound A111]
[A] 2.1

###

- test.description: Liver Microsome Stability Assay (monkey)
- applied.conditions: monkey liver microsomes, with NADPH, 1.0 uM compound
measured.metric: Liver Microsome Stability (Multiple Species): Monkey - % Remaining after 30 min w/NADPH (%)

Recorded results for 5 compounds are shown here.
compound | result.number
CC(C)c1ccc(/C=C/c2csc(NC(=O)c3cccn3CC3CCOCC3)n2)nc1 [Compound D6] | 0.04
CC(=O)Nc1ccc(N2CCC[C@@H]2c2csc(NC(=O)c3cc(C)cn3Cc3ccnc(F)c3)n2)cc1 [Compound A164] | 32.3
O=C(Nc1nc(/C=C/c2cn(Cc3ccccc3)cn2)cs1)c1cccn1Cc1ccnc(F)c1 [Compound B105] | 0.05
CC(=O)N1CCC(Oc2ccc(N3CCC[C@@H]3c3csc(NC(=O)c4cccn4Cc4ccnc(F)c4)n3)nc2)CC1 [Compound A154] | 0.22
O=C(Nc1nc(/C=C/c2c[nH]cn2)cs1)c1cccn1Cc1ccnc(F)c1 [Compound B114] | 43.4

I. CC(=O)N1CCC[C@H](Oc2ccc(N3CCC[C@@H]3c3csc(NC(=O)c4cccn4Cc4ccnc(F)c4)n3)cc2)C1 [Compound A84]
II. N#CCC1(Cn2cccc2C(=O)Nc2nc([C@H]3CCCN3c3ccccc3)cs2)CC1 [Compound C8]
[Q] Response body: label of entry with the larger Liver Microsome Stability (Multiple Species): Monkey - % Remaining after 30 min w/NADPH; valid values I , II . Please respond with the label that marks your chosen entry.
[A] II

###

- Tested on: multiple myeloma cell line NCI-H929
- test.description: H929 Cell Viability Assay
- Assay type: cell-based, human
- applied.conditions: Homo sapiens, NCI-H929, 48 h, NCI-H929 cells, Celltiter-Glo
- Protocol: The human multiple myeloma cell line NCI-H929 was cultured in Advanced RPMI 1640 media (Gibco®) supplemented with 6% fetal bovine serum, 2 mM Glutamine, and 1× Penicillin/Streptomycin. […] After 48 hours, Celltiter-Glo® (Promega) was added to each well and luciferase signal was quantified using Tecan Infinite M1000 Pro for cell viability determination. […]
pEC50: −log10 of the molar value.
measured.metric: pEC50

compound | target.or.test.system | measured.metric | result.number
N#Cc1cnccc1Cn1cccc1C(=O)Nc1nc([C@H]2CCCN2c2ccccc2)cs1 | multiple myeloma cell line NCI-H929 | pEC50 | 4.82
CN(C)c1cccc(-c2csc(NC(=O)c3cccn3Cc3ccncc3)n2)c1 | multiple myeloma cell line NCI-H929 | pEC50 | 4.65
O=C(Nc1nc(/C=C/C2CCc3ccccc3N2)cs1)c1cccn1Cc1ccncc1 (centres unmarked) | multiple myeloma cell line NCI-H929 | pEC50 | 4.66

a. O=C1CCc2cc(N3CCC[C@@H]3c3csc(NC(=O)c4cccn4Cc4ccncc4)n3)ccc2N1
b. Cc1ccc(N2CCC[C@@H]2c2csc(NC(=O)c3cccn3Cc3ccncc3)n2)cc1
c. O=C(Nc1nc([C@H]2CCCN2c2ccc(Cl)cc2)cs1)c1cccn1Cc1ccncc1
[Q] // smallest pEC50 at index 0, largest at the end Give your ranking as a list of the labels in the requested order.
[A] a, c, b
(a: 6.60, c: 6.87, b: 7.27)

a. C[C@@H](N)c1ccc(N2CCC[C@@H]2c2csc(NC(=O)c3cccn3Cc3ccncc3)n2)cc1
b. Cc1ccc(/C=C/c2csc(NC(=O)c3cccn3CC3CCOCC3)n2)nc1F
[Q] Hi! Which is lower in terms of pEC50, the first one a or the second one b ? Label of pick, please.
[A] b
(b: 4.99, a: 6.25)

1. O=C(Nc1nc([C@H]2CCCN2c2ccc(OC3CCNCC3F)cc2)cs1)c1cccn1Cc1ccnc(F)c1 (some centres unmarked)
2. COc1ccc(O[C@H]2CC[C@H](c3csc(NC(=O)c4cccn4Cc4ccncc4)n3)C2)nc1
3. CC(=O)N(C)c1ccc(N2CCC[C@@H]2c2csc(NC(=O)c3cccn3Cc3ccncc3)n2)cc1
4. CC(=O)N1CCC(c2ccc(N3CCC[C@@H]3c3csc(NC(=O)c4cccn4Cc4ccncc4)n3)cc2)CC1
[Q] List from greatest to least pEC50. Returns: the labels listed in the requested order.
[A] 4, 3, 1, 2
